Source of measurements: patent US5766896A

pKi: −log10 of the molar value.
test_readout: pKi

Lab request: please report pKi under test system Myceliophthora laccase (Thermothelomyces thermophilus) for Cl [chloride] ~1.15
